Please provide measured IC50 for the entries that follow.
Target protein (sequence): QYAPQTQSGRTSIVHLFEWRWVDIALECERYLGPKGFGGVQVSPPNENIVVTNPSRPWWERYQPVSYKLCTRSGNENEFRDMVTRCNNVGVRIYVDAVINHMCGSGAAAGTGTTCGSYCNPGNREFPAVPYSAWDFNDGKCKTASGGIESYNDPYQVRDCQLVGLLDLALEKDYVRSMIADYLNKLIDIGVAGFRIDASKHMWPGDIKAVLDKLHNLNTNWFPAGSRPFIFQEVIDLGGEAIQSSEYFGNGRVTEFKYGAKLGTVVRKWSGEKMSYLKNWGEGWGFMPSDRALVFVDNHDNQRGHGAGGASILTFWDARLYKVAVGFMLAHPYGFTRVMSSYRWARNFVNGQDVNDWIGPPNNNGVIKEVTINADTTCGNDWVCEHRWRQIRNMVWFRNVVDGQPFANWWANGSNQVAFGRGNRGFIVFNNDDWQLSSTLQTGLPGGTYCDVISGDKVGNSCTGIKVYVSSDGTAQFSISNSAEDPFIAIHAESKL

Report IC50 for `C=C1CC[C@@H]2C(C)(C)C(=O)/C(=C/c3ccccc3OC)C[C@@]2(C)[C@@H]1COc1ccc2ccc(=O)oc2c1` please.
14.5 µM

Report IC50 for `C=C1CC[C@@H]2C(C)(C)C(=O)/C(=C/c3ccc(C(C)(C)C)cc3)C[C@@]2(C)[C@@H]1COc1ccc2ccc(=O)oc2c1` please.
22.7 µM

Report IC50 for `C=C1CC[C@@H]2C(C)(C)C(=O)/C(=C/c3ccc(F)cc3)C[C@@]2(C)[C@@H]1COc1ccc2ccc(=O)oc2c1` please.
13.2 µM

Report IC50 for `C=C1CC[C@@H]2C(C)(C)C(=O)/C(=C/c3ccc(Br)cc3)C[C@@]2(C)[C@@H]1COc1ccc2ccc(=O)oc2c1` please.
15.4 µM

Report IC50 for `C=C1CC[C@@H]2C(C)(C)C(=O)/C(=C/c3ccc(C)cc3)C[C@@]2(C)[C@@H]1COc1ccc2ccc(=O)oc2c1` please.
22.3 µM

Report IC50 for `C=C1CC[C@@H]2C(C)(C)C(=O)/C(=C/c3ccc(N(C)C)cc3)C[C@@]2(C)[C@@H]1COc1ccc2ccc(=O)oc2c1` please.
10.8 µM

====

# test system: α-amylase from porcine pancreas (Sus scrofa)
# Sequence (P00690 16-511): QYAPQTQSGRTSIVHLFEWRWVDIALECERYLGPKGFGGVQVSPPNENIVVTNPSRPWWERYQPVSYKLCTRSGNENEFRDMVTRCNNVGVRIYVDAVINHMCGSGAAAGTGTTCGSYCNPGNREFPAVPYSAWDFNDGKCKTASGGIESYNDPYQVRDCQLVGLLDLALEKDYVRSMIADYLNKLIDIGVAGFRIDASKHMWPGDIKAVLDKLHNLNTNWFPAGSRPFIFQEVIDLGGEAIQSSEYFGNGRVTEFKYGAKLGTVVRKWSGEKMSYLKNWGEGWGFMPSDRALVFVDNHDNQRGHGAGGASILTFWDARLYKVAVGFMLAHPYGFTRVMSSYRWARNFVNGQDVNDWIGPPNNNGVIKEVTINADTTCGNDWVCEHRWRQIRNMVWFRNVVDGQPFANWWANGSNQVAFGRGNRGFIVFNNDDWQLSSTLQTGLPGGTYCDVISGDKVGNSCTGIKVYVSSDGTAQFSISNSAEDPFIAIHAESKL
Field: label. Allowed values: Condition met (IC50 < 10 µM) or Condition not met (IC50 >= 10 µM).

Given `C=C1CC[C@@H]2C(C)(C)C(=O)CC[C@@]2(C)[C@@H]1COc1ccc2ccc(=O)oc2c1` , is recorded IC50 strictly lower than 10 µM?
Condition not met

Given `C=C1CC[C@@H]2C(C)(C)C(=O)/C(=C/c3ccc(N4CCCC4)cc3)C[C@@]2(C)[C@@H]1COc1ccc2ccc(=O)oc2c1` , is recorded IC50 strictly lower than 10 µM?
Condition met

Given `C=C1CC[C@@H]2C(C)(C)C(=O)/C(=C/c3ccc(Cl)cc3)C[C@@]2(C)[C@@H]1COc1ccc2ccc(=O)oc2c1` , is recorded IC50 strictly lower than 10 µM?
Condition not met

Given `C=C1CC[C@@H]2C(C)(C)C(=O)/C(=C/c3ccccc3)C[C@@]2(C)[C@@H]1COc1ccc2ccc(=O)oc2c1` , is recorded IC50 strictly lower than 10 µM?
Condition not met

Given `C=C1CC[C@@H]2C(C)(C)C(=O)/C(=C/c3cccc(OC(F)(F)C(F)F)c3)C[C@@]2(C)[C@@H]1COc1ccc2ccc(=O)oc2c1` , is recorded IC50 strictly lower than 10 µM?
Condition met

Given `C=C1CC[C@@H]2C(C)(C)C(=O)/C(=C/c3ccc4ccccc4c3)C[C@@]2(C)[C@@H]1COc1ccc2ccc(=O)oc2c1` , is recorded IC50 strictly lower than 10 µM?
Condition not met

Given `C=C1CC[C@@H]2C(C)(C)C(=O)/C(=C/c3ccc(OC)cc3)C[C@@]2(C)[C@@H]1COc1ccc2ccc(=O)oc2c1` , is recorded IC50 strictly lower than 10 µM?
Condition not met

Given `C=C1CC[C@@H]2C(C)(C)C(=O)/C(=C/c3ccc(OC)c(OC)c3)C[C@@]2(C)[C@@H]1COc1ccc2ccc(=O)oc2c1` , is recorded IC50 strictly lower than 10 µM?
Condition not met
